Please go through the items and note down their nuclei count.
- assaySummary: reduction of polyQ htt aggregates in cells – imaging, exon1htt(103Q)mCFP cells, high-content imaging, primary screen (AID 483);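 further: compound exposure lasted 3 days before fixation; percent of the per-plate median nuclei count of sample wells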
- measurementSetup: exon1htt(103Q)mCFP cell line, aggregate imaging, at 2 µM; measured here: cell count, toxicity
One number for each entry, in %.

molecule	unitAnnotation	nuclei count
O=C(c1ccc2nc3ccc(Cl)cc3c(=O)n2c1)N1CCC2(CC1)OCCO2	%	110

Please report nuclei count for every entry that follows.
1. CC(=O)C1C(=O)NC23CCCCC2C1c1ccccc1O3 (centres undefined)
2. O=C(NC1(C(F)(F)F)Oc2ccc(Cl)cc2O1)N1CCC2(CC1)OCCO2 (centres undefined)
3. O=C(CN1C2CCC1CC(O)(c1cccnc1)C2)Nc1ccc2c(c1)OCO2 (centres undefined)
4. CCOC(=O)C1SC2(C(F)F)CC1(O)c1c(c(OC)c3occc3c1OC)O2 (centres undefined)
5. Cn1c(O)c(C=NCc2ccco2)c(=O)n(C)c1=O
6. CC1(C)C(c2ccccc2)=NC(c2cccnc2)N1O (centres undefined)
7. CCOC(=O)c1cccc([P+](=O)O)c1

Output:
1. 109
2. 114
3. 104
4. 98.5
5. 109
6. 108
7. 95.2

Please report nuclei count for every entry that follows.
1. CCC(C)NC(=O)c1c(N)n(CC2CCCO2)c2nc3ccccc3nc12 (centres undefined)
2. COc1ccccc1OCCCn1cc(C(=O)c2ccco2)c2ccccc21

Output:
80.9
101

// provenance: PubChem BioAssay
